target: NRAS Q61K (Homo sapiens (Human), UniProt P01111+P62937, Q61K); experiment: Ras-Raf (BRAF RBD) disruption / FRET / MOA assay, NRAS Q61K; format: biochemical; settings: NRAS Q61K; Ras-Raf disruption/FRET/MOA assay; read-out: IC50* NRAS Q61K FRET data
Sequence (P01111 whole entry Q61K): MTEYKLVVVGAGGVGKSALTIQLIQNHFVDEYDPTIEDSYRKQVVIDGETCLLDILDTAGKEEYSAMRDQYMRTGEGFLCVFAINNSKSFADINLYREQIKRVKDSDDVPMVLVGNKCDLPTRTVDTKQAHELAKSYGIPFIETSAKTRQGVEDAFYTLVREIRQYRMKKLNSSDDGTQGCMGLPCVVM
Sequence (P62937 whole entry): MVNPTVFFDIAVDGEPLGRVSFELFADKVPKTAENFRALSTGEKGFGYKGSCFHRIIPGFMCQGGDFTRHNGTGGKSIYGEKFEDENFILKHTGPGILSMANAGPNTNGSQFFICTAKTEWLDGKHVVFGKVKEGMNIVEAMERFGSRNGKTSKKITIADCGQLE
pIC50: −log10 of the molar value.
Documented pIC50 across a set of molecules

| MOLECULE | pIC50 |
| --- | --- |
| C=CC(=O)N1CC(OC[C@H](C(=O)N[C@H]2Cc3cc(F)cc(c3)-c3ccc4c(c3)c(c(-c3cccnc3[C@H](C)OC)n4CC(F)(F)F)CC(C)(C)COC(=O)[C@@H]3CCCN(N3)C2=O)C(C)C)C1 (atropisomer, axis not shown) [Example A725] | 5.00 to 6.00 |
| C=CC(=O)N1CCO[C@H]2CN(C(=O)N(C)[C@H](C(=O)N[C@H]3Cc4nc(cs4)-c4ccc5c(c4)c(c(-c4cccnc4[C@H](C)OC)n5CC)CC(C)(C)COC(=O)[C@@H]4CCCN(N4)C3=O)C(C)C)C[C@@H]21 (atropisomer, axis not shown) [Example A544] | 7.00 to 8.00 |
| C=CS(=O)(=O)N1CC[C@H](C(=O)N(C)[C@H](C(=O)N[C@H]2Cc3cc(O)cc(c3)-c3ccc4c(c3)c(c(-c3cncnc3)n4CC)CC(C)(C)COC(=O)[C@@H]3CCCN(N3)C2=O)C(C)C)C1 [Example A172] | 5.00 to 6.00 |
| C=CC(=O)N1CC[C@H](C(=O)N(C)[C@H](C(=O)N[C@H]2Cc3cc(O)cc(c3)-c3ccc4c(c3)c(c(-c3cncs3)n4CC)CC(C)(C)COC(=O)[C@@H]3CCCN(N3)C2=O)C(C)C)C1 [Example A143] | 5.00 to 6.00 |
| C=CC(=O)N1CC[C@H](C(=O)N(C)[C@H](C(=O)N[C@H]2Cc3nc(cs3)-c3ccc4c(c3)c(c(-c3cc5c(nc3[C@H](C)OC)CCN(C)C5)n4CC)CC(C)(C)COC(=O)[C@@H]3CCCN(N3)C2=O)C(C)C)C1 (atropisomer, axis not shown) [Example A472] | 5.00 to 6.00 |
| C=CC(=O)N1CC[C@H](C(=O)N(C)[C@H](C(=O)N[C@H]2CN3CCC=C(C3)c3ccc4c(c3)c(c(-c3cccnc3[C@H](C)OC)n4CC)CC(C)(C)COC(=O)[C@@H]3CCCN(N3)C2=O)C(C)C)C1 (atropisomer, axis not shown) [Example A716] | < 5.00 |
| C=CC(=O)N1CC[C@H](C(=O)N(C)[C@H](C(=O)N[C@H]2C[C@H]3CN(CCO3)c3ccc4c(c3)c(c(-c3cccnc3COC)n4CC)CC(C)(C)COC(=O)[C@@H]3CCCN(N3)C2=O)C(C)C)C1 [Example A240] | < 5.00 |
| C=CC(=O)N1CCN(C(=O)N(C)[C@H](C(=O)N[C@H]2Cc3nc(cs3)-c3ccc4c(c3)c(c(-c3cccnc3[C@H](C)OC)n4CC)CC(C)(C)COC(=O)[C@@H]3CCCN(N3)C2=O)C(C)C)CC12CC2 (atropisomer, axis not shown) [Example A417] | 7.00 to 8.00 |

* * *

molecular target: K-Ras G13C (Homo sapiens (Human), UniProt P01116+P62937, G13C); assay: Ras-Raf (BRAF RBD) disruption / FRET / MOA assay, KRAS G13C; assay type: biochemical; details: KRAS G13C; Ras-Raf disruption/FRET/MOA assay; read-out: IC50* KRAS G13C FRET data
Sequence (P01116-2 other isoform, or with tags, fused parts or gaps G13C): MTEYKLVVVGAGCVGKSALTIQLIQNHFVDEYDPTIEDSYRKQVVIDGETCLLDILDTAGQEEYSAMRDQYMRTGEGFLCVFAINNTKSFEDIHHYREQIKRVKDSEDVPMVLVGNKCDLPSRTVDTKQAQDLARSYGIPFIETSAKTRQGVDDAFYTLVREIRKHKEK
Sequence (P62937 whole entry): as the sequence (P62937 whole entry) above
pIC50: −log10 of the molar value.

| COMPOUND | TEST TARGET | pIC50 |
| --- | --- | --- |
| CCn1c(-c2cccnc2[C@H](C)OC)c2c3cc(ccc31)-c1cccc(c1)C[C@H](NC(=O)[C@H](C(C)C)N(C)C(=O)[C@H]1CCN(S(=O)(=O)C=C(C)C)C1)C(=O)N1CCC[C@H](N1)C(=O)OCC(C)(C)C2 (atropisomer, axis not shown) | K-Ras G13C (Homo sapiens (Human), UniProt P01116+P62937, G13C) | 5.00 to 6.00 |
| C=CC(=O)N1CC[C@H](C(=O)N(C)[C@H](C(=O)N[C@H]2C[C@H]3CN(CCO3)c3ccc4c(c3)c(c(-c3cccnc3COC)n4CC)CC(C)(C)COC(=O)[C@@H]3CCCN(N3)C2=O)C(C)C)C1 | K-Ras G13C (Homo sapiens (Human), UniProt P01116+P62937, G13C) | < 5.00 |
